Sourced from patent US20030139431A1

Recorded EC50 for the following compounds
Molecular target: rNPFF2 (Rattus norvegicus, UniProt Q9EQD2)
Sequence (Q9EQD2 whole entry): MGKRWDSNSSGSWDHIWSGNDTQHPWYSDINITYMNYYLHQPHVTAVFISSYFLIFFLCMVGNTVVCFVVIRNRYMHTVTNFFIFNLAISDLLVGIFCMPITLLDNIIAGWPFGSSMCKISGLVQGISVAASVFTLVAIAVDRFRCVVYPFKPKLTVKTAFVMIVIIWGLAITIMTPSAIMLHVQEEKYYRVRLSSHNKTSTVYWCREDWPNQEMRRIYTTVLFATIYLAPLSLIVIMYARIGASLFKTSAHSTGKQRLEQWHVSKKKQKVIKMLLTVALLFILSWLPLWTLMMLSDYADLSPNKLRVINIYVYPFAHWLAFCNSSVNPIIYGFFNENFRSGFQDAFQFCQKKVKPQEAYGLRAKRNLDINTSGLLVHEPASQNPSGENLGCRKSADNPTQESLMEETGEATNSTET
Assay: Functional assay (agonist potency, intrinsic activity) at cloned rat NPFF2 receptor
Details: recombinant rat NPFF2
Respond with the bare value in nM.

Worked set:
CCCCCCc1ccc2nc(NC(=N)N)nc(C)c2c1 105
Cc1cc2nc(NC(=N)N)nc(C)c2cc1C 272
CCCCCOc1ccc2nc(NC(=N)N)nc(C)c2c1 2190
Cc1nc(NC(=N)N)nc2ccc(Cc3ccccc3)cc12 49
Cc1ccc(Oc2ccc3nc(NC(=N)N)nc(C)c3c2)cc1 3160
CCCCCCCc1ccc2nc(NC(=N)N)nc(C)c2c1 1950
Cc1nc(NC(=N)N)nc2ccc(OCCCCCOc3ccccc3)cc12 3160
CCCCc1ccc2nc(NC(=N)N)nc(C)c2c1 124

Task item: Report EC50, nothing else, for this compound: Cc1nc(NC(=N)N)nc2ccc(C3CCCCC3)cc12
Reply: 2050

Task item: Report EC50, nothing else, for this compound: COc1ccc2nc(NC(=N)N)cc(C)c2c1
Reply: 1530

Task item: Report EC50, nothing else, for this compound: Cc1nc(NC(=N)N)nc2cc(F)c(F)cc12
Reply: 2540
